- Test system: cat fleas (Ctenocephalides felis, fully sensitive laboratory strain)
- test: Contact test against fleas in-vitro (CTECFE contact)
- Type: in vivo
- protocol_conditions: 500 g/ha, after 48 h
measured_metric: activity against cat fleas (%)
Quick reminder: number only, in %, skip the unit.

Cc1ccc(N=C2C(=CSc3ccc(F)cc3)CSc3ccccc32)cc1
100
Cc1ccc(N=C2C(=CSc3ccc(F)cc3)C(C)c3ccccc32)cc1 (stereo not shown)
100
Cc1ccc(N=C2C(=CSc3ccc(F)cc3)CCc3sccc32)cc1 (mixture of isomers)
100
Cc1ccc(N=C2c3ccccc3OCC2C(Sc2ccc(F)cc2)Sc2ccc(F)cc2)cc1 (stereo not shown)
100

Task: Which value of activity against cat fleas has been reported for Cc1ccc(N=C2C(=CSc3ccc(F)cc3)C(C)c3cc(F)ccc32)cc1C (mixture of isomers) in the records?
Result: 100

Task: Please give the measured activity against cat fleas for this compound: Cc1ccc(N=C2C(=CSc3ccc(F)cc3)CCc3cc(F)ccc32)cc1
Result: 100

Task: What does the record list as activity against cat fleas for CCc1ccc2c(c1)CCC(=CSc1ccc(F)cc1)C2=Nc1ccc(C)cc1 ?
Result: 100
